# assay remarks: in vitro
# conditions: human, hela cells, % viability
So basically: is viability at 28.5 h, 10 µM under 90%? Then criterion met. Not under? Then criterion not met.

# example entries with known answers
- compound: "CN1CCCN(c2cncc(-c3cccnc3)n2)CC1"
  group: "criterion not met"
- compound: "COC(=O)CCc1ccc(S(=O)(=O)N2CCCN(Cc3cc(F)c(F)c(F)c3)CC2)cc1"
  group: "criterion not met"
- compound: "CC(C)(C)NC(=O)N1CCC(Nc2nccc(C(F)(F)F)n2)CC1"
  group: "criterion not met"
- compound: "Cc1nn(C)c(C)c1CCn1cncc1-c1ccc2c(c1)CC(C)N2C (centres unmarked)"
  group: "criterion met"
- compound: "Nc1ccc2ccc(Cl)nc2n1"
  group: "criterion not met"
- compound: "Oc1ccccc1Sc1cnccn1"
  group: "criterion not met"
- compound: "C[C@H]1CN2C[C@H](O)CC2CN1Cc1ccc(Cl)c(Cl)c1 (some centres unmarked)"
  group: "criterion not met"
- compound: "S=c1[nH]cnc2sc3c(c12)CCCC3"
  group: "criterion met"

Prompt: Is viability at 28.5 h, 10 µM strictly under 90% for the entry CC(=O)Nc1ccc(-c2cncc(N(C)CCN(C)C)n2)cc1 ?
Completion: criterion not met

Prompt: Is viability at 28.5 h, 10 µM strictly under 90% for the entry COc1ccc(NCc2cc(I)c(OCc3ccccc3)c(OC)c2)cc1 ?
Completion: criterion not met

Prompt: Is viability at 28.5 h, 10 µM strictly under 90% for the entry O=C(CN1CCC(Cc2ccccc2)CC1)Nc1ccc(S(=O)(=O)N2CCOCC2)cc1 ?
Completion: criterion not met

Prompt: Is viability at 28.5 h, 10 µM strictly under 90% for the entry O=C(Cn1c(C2CCCNC2)cc2cccnc21)NC1CCCC1 (centres unmarked) ?
Completion: criterion not met
